- measurement-target: purified recombinant human p38 alpha MAPK (Homo sapiens, UniProt Q16539)
- Construct: purchased Millipore, USA
- Sequence (Q16539 whole entry): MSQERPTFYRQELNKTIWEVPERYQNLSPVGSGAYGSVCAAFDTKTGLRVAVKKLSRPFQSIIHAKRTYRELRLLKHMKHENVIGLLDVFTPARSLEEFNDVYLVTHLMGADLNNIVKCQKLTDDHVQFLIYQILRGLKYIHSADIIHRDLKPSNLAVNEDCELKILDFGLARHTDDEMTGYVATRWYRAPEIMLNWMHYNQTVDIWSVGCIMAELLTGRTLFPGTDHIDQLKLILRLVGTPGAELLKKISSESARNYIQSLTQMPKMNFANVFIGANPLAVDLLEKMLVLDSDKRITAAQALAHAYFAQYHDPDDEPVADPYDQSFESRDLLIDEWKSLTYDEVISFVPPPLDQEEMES
- procedure-text: Inhibition of p38 alpha MAPK activity: TR-FRET kinase assay
- Assay type: biochemical
- test-settings: Concentration 1 μM; read-out: P38α Inhibition
Quick reference: inhibition at 1 µM of the listed items.

Past entries and their recorded results:
CCOC(=O)c1cnc2sc3cc(Oc4ccccc4CNC(=O)Nc4ccc(OC)c(Cl)c4)ccc3n12 [Compound 44] = 40 to 60%
CN(CCO)C(=O)c1cnc2sc3cc(Oc4ccccc4CNC(=O)Nc4cc(C(C)(C)C)nn4-c4ccc(O)c(Cl)c4)ccc3n12 [Compound 28] = 80 to 100%
CC(C)(C)c1cc(NC(=O)Nc2ccc(Sc3ccc4c(c3)sc3ncc(CO)n34)cc2)n(-c2ccc(O)cc2)n1 [Compound 18] = 40 to 60%

Please look at the following molecule next.
inhibition at 1 µM recorded for this molecule, CCOC(=O)c1cnc2sc3cc(Oc4ccccc4CNC(=O)Nc4cc(C(C)(C)C)nn4-c4ccc(OC)cc4)ccc3n12 [Compound 12] , is 80 to 100%

* * *

- measurement-target: purified recombinant human p38 alpha MAPK (Homo sapiens)
- Construct: purchased Millipore, USA
- procedure-text: Inhibition of p38 alpha MAPK activity: TR-FRET kinase assay
- Assay type: biochemical
- test-settings: Concentration 1 μM; read-out: P38α Inhibition
reported-metric: inhibition at 1 µM

Cc1nc2sc3cc(Oc4ccccc4CNC(=O)Nc4cc(C(C)(C)C)nn4-c4ccc(O)c(Cl)c4)ccc3n2c1CN1CCOCC1 = 80 to 100%

Item: COc1ccc(-n2nc(C(C)(C)C)cc2NC(=O)Nc2ccc(Oc3ccc4c(c3)sc3ncc(C(=O)NCCO)n34)cc2)cc1Cl | inhibition at 1 µM: 60 to 80%

response.value for CC(C)(C)c1cc(NC(=O)Nc2ccc(Oc3ccc4c(c3)sc3nc(C(=O)NCCN5CCOCC5)cn34)cc2)n(-c2ccc(O)c(Cl)c2)n1 (field: inhibition at 1 µM) = 40 to 60%

Field inhibition at 1 µM (entry CC(C)(C)c1cc(NC(=O)NCc2ccccc2Oc2ccc3c(c2)sc2ncc(COCC4CC4)n23)n(-c2ccc(O)c(Cl)c2)n1 ) reads 60 to 80%

// sample COc1ccc(-n2nc(C(C)(C)C)cc2NC(=O)Nc2ccc(Sc3ccc4c(c3)sc3ncc(C(=O)O)n34)cc2)cc1 , its inhibition at 1 µM was 80 to 100%

* * *

- measurement-target: purified recombinant human p38 alpha MAPK (Homo sapiens, UniProt Q16539)
- Construct: purchased Millipore, USA
- procedure-text: Inhibition of p38 alpha MAPK activity: TR-FRET kinase assay
- Format: biochemical
- test-settings: Concentration 1 μM; read-out: P38α Inhibition
reported-metric: inhibition at 1 µM

Previously resolved entries follow.
CCOC(=O)c1cnc2sc3cc(Oc4ccccc4CNC(=O)Nc4cc(C(C)(C)C)nn4-c4ccc(O)cc4)ccc3n12 = 80 to 100%
COc1ccc(-n2nc(C(C)(C)C)cc2NC(=O)Nc2ccc(Oc3ccc4c(c3)sc3ncc(C(=O)O)n34)cc2)cc1Cl = 80 to 100%
CCOC(=O)c1cnc2sc3cc(Oc4ccccc4CNC(=O)Nc4cc(OC)cc(OC)c4)ccc3n12 = ≤ 20%
CCOC(=O)c1cnc2sc3cc(Oc4ccccc4CNC(=O)NC4CCCCC4)ccc3n12 = ≤ 20%
COc1ccc(-n2nc(C(C)(C)C)cc2NC(=O)Nc2ccc(Oc3ccc4c(c3)sc3ncc(CO)n34)cc2)cc1 = 60 to 80%
COCc1c(C)nc2sc3cc(Oc4ccccc4CNC(=O)Nc4ccc(OC)c(Cl)c4)ccc3n12 = 60 to 80%

Please look at the following compound next.
Per the records, this compound ( Cc1cnc(-c2cnc3sc4cc(Oc5ccccc5CNC(=O)Nc5cc(C(C)(C)C)nn5-c5ccc(O)c(Cl)c5)ccc4n23)o1 ) has inhibition at 1 µM equal to 60 to 80%

* * *

- measurement-target: purified recombinant human p38 alpha MAPK (Homo sapiens)
- Construct: purchased Millipore, USA
- procedure-text: Inhibition of p38 alpha MAPK activity: TR-FRET kinase assay
- Format: biochemical
- test-settings: Concentration 1 μM; read-out: P38α Inhibition
Listing of entries alongside the reported inhibition at 1 µM.

In plain terms, CC(C)(C)c1cc(NC(=O)NCc2ccccc2Oc2ccc3c(c2)sc2ncc(CN4CCOCC4)n23)n(-c2ccc(O)c(Cl)c2)n1 [Compound 35] has a documented inhibition at 1 µM of 80 to 100%

The reported inhibition at 1 µM of the compound CC(C)(C)c1cc(NC(=O)NCc2ccccc2Oc2ccc3c(c2)sc2ncc(C(=O)NC(CO)CO)n23)n(-c2ccc(O)c(Cl)c2)n1 [Compound 21] was 80 to 100%

The compound listed as O=C(Nc1ccc(Oc2ccc3c(c2)sc2ncc(C(=O)O)n23)cc1)NC(CO)c1ccccc1 (stereo not drawn) [Compound 41] has a reported inhibition at 1 µM of ≤ 20%

// inhibition at 1 µM lookup, compound = COc1c(NC(=O)NCc2ccccc2Oc2ccc3c(c2)sc2ncc(CN4CCOCC4)n23)cc(C(C)(C)C)cc1NS(C)(=O)=O [Compound 74] , result: 60 to 80%

Record Cc1ccc(-n2nc(C(C)(C)C)cc2NC(=O)Nc2ccc(Oc3ccc4c(c3)sc3nc(C(=O)NCCN5CCOCC5)cn34)cc2)cc1 [Compound 2] , field inhibition at 1 µM: 60 to 80%

Noted for CC(C)(C)c1cc(NC(=O)NCc2ccccc2Oc2ccc3c(c2)sc2ncc(CN4CCC(O)CC4)n23)n(-c2ccc(O)c(Cl)c2)n1 [Compound 65] : its inhibition at 1 µM reads 60 to 80%

* * *

- measurement-target: purified recombinant human p38 alpha MAPK (Homo sapiens)
- Construct: purchased Millipore, USA
- procedure-text: Inhibition of p38 alpha MAPK activity: TR-FRET kinase assay
- Assay type: biochemical
- test-settings: Concentration 1 μM; read-out: P38α Inhibition
Quick reference: inhibition at 1 µM of the listed items.

CCOC(=O)c1cnc2sc3cc(Oc4ccc(NC(=O)Nc5c(-c6ccccc6)noc5C)cc4)ccc3n12 = ≤ 20%

# input for lookup
Simply: CC(C)(C)c1cc(NC(=O)NCc2ccccc2Oc2ccc3c(c2)sc2ncc(CN4CCSCC4)n23)n(-c2ccc(O)c(Cl)c2)n1 , purified recombinant human p38 alpha MAPK (Homo sapiens), inhibition at 1 µM = 80 to 100%

* * *

- measurement-target: purified recombinant human p38 alpha MAPK (Homo sapiens, UniProt Q16539)
- Construct: purchased Millipore, USA
- procedure-text: Inhibition of p38 alpha MAPK activity: TR-FRET kinase assay
- Format: biochemical
- test-settings: Concentration 1 μM; read-out: P38α Inhibition
reported-metric: inhibition at 1 µM

Recorded results for 10 molecules are shown here.
CCOC(=O)c1cnc2sc3cc(Oc4ccccc4CNC(=O)NC(CO)c4ccccc4)ccc3n12 (stereo not shown) = ≤ 20%
CC(C)(C)c1cc(NC(=O)NCc2ccccc2Oc2ccc3c(c2)sc2ncc(CO)n23)n(-c2ccc(O)c(Cl)c2)n1 = 80 to 100%
CC(C)(C)c1cc(NC(=O)NCc2ccccc2Oc2ccc3c(c2)sc2ncc(C(=O)O)n23)n(-c2ccc(O)c(Cl)c2)n1 = 80 to 100%
CCOC(=O)CSCc1cn2c(n1)sc1cc(Oc3ccccc3CNC(=O)Nc3cc(C(C)(C)C)nn3-c3ccc(O)c(Cl)c3)ccc12 = 80 to 100%
CCOC(=O)c1cnc2sc3cc(Oc4ccc(NC(=O)Nc5cc(C(C)(C)C)nn5-c5ccc(OC)c(Cl)c5)cc4)ccc3n12 = 20 to 40%
CCOC(=O)c1cnc2sc3cc(Oc4ccc(NC(=O)Nc5cc(C(C)(C)C)nn5-c5ccc(O)c(Cl)c5)cc4)ccc3n12 = ≤ 20%
COCc1c(C)nc2sc3cc(Oc4ccccc4CNC(=O)Nc4cc(C(C)(C)C)nn4-c4ccc(O)c(Cl)c4)ccc3n12 = 80 to 100%
CC(C)(C)c1cc(NC(=O)Nc2ccc(Oc3ccc4c(c3)sc3ncc(CO)n34)cc2)n(-c2ccc(O)c(Cl)c2)n1 = 60 to 80%
COCc1c(C)nc2sc3cc(Oc4ccccc4CNC(=O)Nc4ccc(Cl)c(C(F)(F)F)c4)ccc3n12 = 80 to 100%
CC(C)(C)c1cc(NC(=O)Nc2ccc(Sc3ccc4c(c3)sc3ncc(C(=O)O)n34)cc2)n(-c2ccc(O)cc2)n1 = 80 to 100%

GET /value?item= CC(C)(C)c1cc(NC(=O)NCc2ccccc2Oc2ccc3c(c2)sc2ncc(CO)n23)n(-c2ccc(O)cc2)n1 &field=inhibition at 1 µM returns 80 to 100%

The molecule identified as CC(C)(C)c1cc(NC(=O)Nc2ccc(Oc3ccc4c(c3)sc3ncc(C(=O)O)n34)cc2)n(-c2ccc(O)c(Cl)c2)n1 registered its inhibition at 1 µM at 80 to 100%

The molecule identified as CC(C)(C)c1cc(NC(=O)NCc2ccccc2Oc2ccc3c(c2)sc2ncc(C(=O)NCCO)n23)n(-c2ccc(O)c(Cl)c2)n1 registered its inhibition at 1 µM at 80 to 100%

Measured inhibition at 1 µM of CC(C)(C)c1cc(NC(=O)NCc2ccccc2Oc2ccc3c(c2)sc2ncc(C(=O)O)n23)n(-c2ccc(O)cc2)n1 : 80 to 100%

So, CCOC(=O)c1cnc2sc3cc(Oc4ccc(NC(=O)Nc5ccc(Cl)c(C(F)(F)F)c5)cc4)ccc3n12 ? Its inhibition at 1 µM was ≤ 20%

Reported inhibition at 1 µM of COCc1c(C)nc2sc3cc(Oc4ccccc4CNC(=O)Nc4cc(C(C)(C)C)no4)ccc3n12 : 80 to 100%

Entry Cc1ccc(-n2nc(C(C)(C)C)cc2NC(=O)Nc2ccc(Oc3ccc4c(c3)sc3nc(C(=O)NC(CO)c5ccccc5)cn34)cc2)cc1 (stereo not shown) ; inhibition at 1 µM = 40 to 60%

inhibition at 1 µM recorded for this molecule, CC(C)(C)c1cc(NC(=O)NCc2ccccc2Sc2ccc3c(c2)sc2ncc(C(=O)O)n23)n(-c2ccc(O)c(Cl)c2)n1 , is 40 to 60%

inhibition at 1 µM for CCOC(=O)c1cnc2sc3cc(Oc4ccccc4CNC(=O)Nc4cc(C(C)(C)C)nn4-c4ccccc4)ccc3n12 is 60 to 80%
